These measurements were taken from the Immune Epitope Database (IEDB).

Biological target: HLA-A*29:02
Assay: IEDB peptide-MHC binding, purified MHC/direct/fluorescence; filed as Kd, often an IC50 or EC50 that approximates it; bounds were set here for any values at or beyond the usual limits of such assays
Details: source organism: Yellow fever virus 1899/81
outcome.measure: Kd

Report measured Kd; entry is RADEINAIL
≥ 20 µM

###

Molecular target: HLA-B*57:01
Assay: IEDB peptide-MHC binding, purified MHC/competitive/fluorescence; filed as Kd, often an IC50 or EC50 that approximates it; bounds were set here for any values at or beyond the usual limits of such assays
Settings: source organism: Cryptosporidium parvum Iowa II
outcome.measure: Kd

Report measured Kd; entry is RGRKPIFRK
≥ 20 µM

###

Biological target: HLA-B*18:01
Assay: IEDB peptide-MHC binding, purified MHC/direct/fluorescence; filed as Kd, often an IC50 or EC50 that approximates it; bounds were set here for any values at or beyond the usual limits of such assays
Settings: source organism: Influenza A virus (A/swine/Hong Kong/2106/98(H9N2))
pKd: −log10 of the molar value.
outcome.measure: pKd

Report measured pKd; entry is GENMAPEKV
≤ 4.70

###

Biological target: HLA-A*02:01
Experiment: IEDB peptide-MHC binding, purified MHC/competitive/fluorescence; filed as Kd, often an IC50 or EC50 that approximates it; bounds were set here for any values at or beyond the usual limits of such assays
Details: source organism: Mycobacterium tuberculosis variant bovis BCG str. Pasteur 1173P2
outcome.measure: Kd

Report measured Kd; entry is RPRLHSISF
≥ 20 µM

###

Molecular target: HLA-B*27:03
Assay: IEDB peptide-MHC binding, purified MHC/direct/fluorescence; filed as Kd, often an IC50 or EC50 that approximates it; bounds were set here for any values at or beyond the usual limits of such assays
Conditions: source organism: Squirrelpox virus
pKd: −log10 of the molar value.
outcome.measure: pKd

Report measured pKd; entry is MACHRVLTY
≤ 4.70

###

Target: HLA-A*02:06
Experiment: IEDB peptide-MHC binding, purified MHC/competitive/radioactivity; filed as Kd, often an IC50 or EC50 that approximates it; bounds were set here for any values at or beyond the usual limits of such assays
Details: source organism: Mammarenavirus lassaense
For each of the sequences below, state its Kd.
Lab book: enter the figure in nM, no units written.

Report measured Kd; entry is NCLSLLLSV
630

Report measured Kd; entry is LLMEGLKLLS
1750

###

Target: HLA-B*08:01
Experiment: IEDB peptide-MHC binding, purified MHC/competitive/fluorescence; bounds were set here for any values at or beyond the usual limits of such assays
Conditions: source organism: Pan troglodytes
pIC50: −log10 of the molar value.
outcome.measure: pIC50

Report measured pIC50; entry is RPPYSSYGY
≤ 4.70

###

Biological target: HLA-B*15:01
Assay: IEDB peptide-MHC binding, purified MHC/competitive/radioactivity; filed as Kd, often an IC50 or EC50 that approximates it; bounds were set here for any values at or beyond the usual limits of such assays
Conditions: source organism: Dengue virus 4 Philippines/H241/1956
For each of the sequences below, state its pKd.
Note on units: pKd is unitless, being -log10 of a concentration expressed in mol/L.

Report measured pKd; entry is RMAILGETAW
6.60

Report measured pKd; entry is LLLMRTTWAF
8.91

###

Molecular target: HLA-A*02:12
Experiment: IEDB peptide-MHC binding, purified MHC/direct/fluorescence; filed as Kd, often an IC50 or EC50 that approximates it; bounds were set here for any values at or beyond the usual limits of such assays
Conditions: source organism: Ravn virus - Ravn, Kenya, 1987
For each of the sequences below, state its pKd.
Note on units: pKd is unitless, being -log10 of a concentration expressed in mol/L.

Report measured pKd; entry is YLPEDSDIL
8.22

Report measured pKd; entry is YMQQVSEGL
8.70

###

Target: HLA-B*44:02
Assay: IEDB peptide-MHC binding, purified MHC/direct/fluorescence; filed as Kd, often an IC50 or EC50 that approximates it; bounds were set here for any values at or beyond the usual limits of such assays
Conditions: source organism: West Nile virus
pKd: −log10 of the molar value.
outcome.measure: pKd

Report measured pKd; entry is FVDVGVSAL
≤ 4.70

###

Biological target: HLA-A*03:01
Experiment: IEDB peptide-MHC binding, purified MHC/direct/fluorescence; filed as Kd, often an IC50 or EC50 that approximates it; bounds were set here for any values at or beyond the usual limits of such assays
Details: source organism: Mammarenavirus juninense
pKd: −log10 of the molar value.
outcome.measure: pKd

Report measured pKd; entry is QVKRREGMF
≤ 4.70

###

Molecular target: HLA-A*02:12
Experiment: IEDB peptide-MHC binding, purified MHC/direct/fluorescence; filed as Kd, often an IC50 or EC50 that approximates it; bounds were set here for any values at or beyond the usual limits of such assays
Settings: source organism: Squirrelpox virus
outcome.measure: Kd

Report measured Kd; entry is MACHRVLTY
≥ 20 µM

###

Target: HLA-B*18:01
Assay: IEDB peptide-MHC binding, purified MHC/direct/fluorescence; filed as Kd, often an IC50 or EC50 that approximates it; bounds were set here for any values at or beyond the usual limits of such assays
Details: source organism: Campylobacter jejuni RM1221
outcome.measure: pKd
Note on units: pKd is unitless, being -log10 of a concentration expressed in mol/L.

Report measured pKd; entry is YHPVYILPY
5.84

###

Biological target: HLA-A*02:01
Assay: IEDB peptide-MHC binding, purified MHC/competitive/radioactivity; filed as Kd, often an IC50 or EC50 that approximates it; bounds were set here for any values at or beyond the usual limits of such assays
Details: source organism: Vaccinia virus WR
outcome.measure: pKd
Note on units: pKd is unitless, being -log10 of a concentration expressed in mol/L.

Report pKd on HLA-A*02:01 for this entry: AFEFINSLLK
4.92

###

Molecular target: HLA-A*24:02
Experiment: IEDB peptide-MHC binding, purified MHC/competitive/fluorescence; bounds were set here for any values at or beyond the usual limits of such assays
Conditions: source organism: Zaire ebolavirus
outcome.measure: log10(IC50) (log10 of the value in µM)
Could you please treat all values as log10 of IC50 in µM?

Report log10(IC50) on HLA-A*24:02 for this entry: IRGFPRCRY
1.82

Report log10(IC50) on HLA-A*24:02 for this entry: NITDKIDQI
0.99

Report log10(IC50) on HLA-A*24:02 for this entry: IFRLMRTNF
-1.40

Report log10(IC50) on HLA-A*24:02 for this entry: TVAPPAPVY
0.71

Report log10(IC50) on HLA-A*24:02 for this entry: RSNTTGKLI
1.64

Report log10(IC50) on HLA-A*24:02 for this entry: DDPTDSQDT
1.84

Report log10(IC50) on HLA-A*24:02 for this entry: FPQLSAIAL
1.25

###

Target: HLA-A*24:02
Experiment: IEDB peptide-MHC binding, purified MHC/competitive/fluorescence; bounds were set here for any values at or beyond the usual limits of such assays
Conditions: source organism: Bos taurus
outcome.measure: IC50 (nM)
Lab book: enter the figure in nM, no units written.

Report measured IC50; entry is YMMDDLEL
1060

###

Target: HLA-A*31:01
Test: IEDB peptide-MHC binding, purified MHC/competitive/radioactivity; filed as Kd, often an IC50 or EC50 that approximates it; bounds were set here for any values at or beyond the usual limits of such assays
Conditions: source organism: SARS coronavirus Tor2
outcome.measure: Kd

Report measured Kd; entry is STAWLCALGK
0.271 µM

Report measured Kd; entry is GALHLYFDK
0.143 µM

Report measured Kd; entry is QLLMPLKAPK
0.134 µM

Report measured Kd; entry is LQGPPGTGK
1.26 µM

Report measured Kd; entry is YSYATHHDK
3.47 µM

Report measured Kd; entry is QTMLFTMLR
0.000162 µM

Report measured Kd; entry is RTELGVEFLK
1.35 µM

Report measured Kd; entry is FLIGANYLGK
3.72 µM

Report measured Kd; entry is VMCGGSLYVK
0.648 µM

Report measured Kd; entry is GVRFFFYTSK
0.488 µM

Report measured Kd; entry is MLVYCFLGY
0.907 µM

Report measured Kd; entry is STGNYNYKYR
0.0347 µM

Report measured Kd; entry is YLALYNKYK
0.941 µM

Report measured Kd; entry is ATAHSELAK
18.5 µM

Report measured Kd; entry is LLLFADINGK
≥ 24.1 µM

###

Target: HLA-B*46:01
Experiment: IEDB peptide-MHC binding, purified MHC/competitive/fluorescence; filed as Kd, often an IC50 or EC50 that approximates it; bounds were set here for any values at or beyond the usual limits of such assays
Conditions: source organism: Cryptosporidium parvum Iowa II
outcome.measure: Kd

Report measured Kd; entry is RGRKPIFRK
≥ 20 µM
